system: Gβ1γ2 (Gβ1 mutants) (UniProt P54311+P63212, K57A)
Construct: made in house; host or cells: Sf9 insect cells (baculovirus), partially purified via (His)6-Gαi1 on Ni-NTA
testName: Phage ELISA: binding of peptide-displaying phage to wild-type or alanine-substituted b-βγ
Design: species or system rat
conditionNotes: Gβ1 Lys57Ala; mean ± SD
Description: Wild-type Gβ1 and Gp1 mutants were made in the baculovirus vector PDW464 which encodes a biotinylation site at a lysine upstream of the amino terminus of Gβ1 (Goubaeva, et al. (2003) supra). Mutants were generated by overlap extension PCR using standard protocols. The wild-type and mutant Gβ1 constructs consisted of a 20 amino acid biotin acceptor peptide (BAP) sequence fused in-frame with the amino-terminus of rat Gβ1 subunit. […]
property: % of Wild-Type Signal (%)
I only need the number, in %, no unit after it.

Consider the reported % of Wild-Type Signal for these sequences:
residueCodes	% of Wild-Type Signal, %
SCKRTKAQILLAPCT [Compound C1]	0.1
SIGKALFILGYPDYD [Compound 3.14]	18.6
WCPPKAMTQLGIKAC [Compound C14]	3.0

Here is another sequence to look at.
Form field: % of Wild-Type Signal recorded for WCPPKLEQWYDGCA [Compound C2] with Gβ1γ2 (Gβ1 mutants) (UniProt P54311+P63212, K57A) (enter value)
−1.2
